assay: yeast display, Sf9 membrane polyspecificity reagent, FACS + sequencing; frameworks hold sequencing errors

# Seq, polyreactivity (PSR sort gate)
measured = [
    ("QVQLVESGGGLVQAGGSLRLSCAASGLTFRLNAMGWYRQAPGKERELVAAITSIADRTYYADSVKGRFTISRDNAKNTVYLQMNSLKPEDTAVYYCNVTPRRAQVRIGNYWGQGTQVTVSS", "high polyreactivity"),
    ("QVQLVQSGGGLVQAGGSLRLSCAASGRIFRPNAMGWYRQAPGKERELVAAISSGGSTYYADSVKGRFTISRDNAKNTVYFQMYSLKPEDTAVDYCAADRSNRPYYRQGYDYWGQGTQVTVSS", "high polyreactivity"),
]
